Tested on: SK-MEL-5
Protocol notes: NCI tumour cell line growth inhibition, 48 h
Active and inactive are the calls of the source. No stated cut-off is given here; in the data, active = GI50 up to about 1.1 µM and inactive = higher.
In this exercise, the only acceptable responses are active, inactive

Would you please look over these solved cases?
Compound | Class
COC(=O)CCC(=O)CC1CC(=O)C2CCCN12 (configuration not stated) | inactive
Clc1cccc(C2ON=C(c3ccccc3)N2C23CC4CC(CC(C4)C2)C3)c1Cl (configuration not stated) | inactive
O=S(=O)(N/C(=N\O)Nc1ccc(Cl)cc1)c1ccccc1 | inactive

[in] Could you check what this test reported for CCN1CCC(O)(c2ccc(Cl)cc2)C(C(=O)c2ccc(Cl)cc2)C1 (configuration not stated) ?
[out] inactive

[in] `Cc1ccc(Oc2ccc([N+](=O)[O-])cc2[N+](=O)[O-])c(C)c1` , same question.
[out] inactive

[in] Nc1nc(Cl)cc(NCC2(CO)CC(CCc3ccccc3)C2)n1 (configuration not stated) , same question.
[out] active

[in] COC1OC(C(=O)O)C2OC(C)(C)OC12 (configuration not stated) , same question.
[out] inactive

[in] `Cc1c(N2CCN(C)CC2)nc2ccc(Cl)cc2c1-c1ccccc1` , same question.
[out] inactive

[in] `CSc1nnc(SCc2nn3c(=O)cc(C)nc3s2)s1` , same question.
[out] inactive

---

Test system: SW-620
Protocol notes: NCI tumour cell line growth inhibition, 48 h
The source made the active and inactive calls. No stated cut-off is given here; in the data, active = GI50 up to about 1.1 µM and inactive = higher.
Assay readout: GI50

Smiles notation | GI50
COc1ccc(OC)c(CCc2ccccc2CC(=O)O)c1 | > 100 µM (inactive)

For every record below, what is its GI50?
1. O=C(NCCSSCCNC(=O)/C(Cc1ccc(O)c(Br)c1)=N/O)/C(Cc1ccc(O)c(Br)c1)=N/O
2. CC(=O)Nc1ccccc1-c1nc2ccccc2nc1C
3. Cc1nn2c(=O)c([N+](=O)[O-])c(/C=C/c3ccco3)nc2s1
4. COc1ccc(-c2cc(=O)c3c(O)c(OC)c(O)c(OC)c3o2)cc1OC

[out]
1.64 µM (inactive)
> 100 µM (inactive)
48.2 µM (inactive)
> 100 µM (inactive)

---

System: RXF 393
Protocol notes: NCI tumour cell line growth inhibition, 48 h
Active and inactive are the calls of the source. Cut-off read from the data, not from the text of the source: active = GI50 up to about 1.1 µM and inactive = higher.
In this exercise, the only acceptable responses are active, inactive

[in] Could you check what this test reported for `COc1ccc(OC)c(CCc2ccccc2CC(=O)O)c1` ?
[out] inactive

[in] OC1OC(c2ccc[nH]2)C(F)(F)C(F)(F)C1(F)F (configuration not stated) , same question.
[out] inactive

---

Test system: MDA-MB-435
Protocol notes: NCI tumour cell line growth inhibition, 48 h
Activity calls are given as the source filed them. Rule as the data show it: active = GI50 up to about 1.1 µM and inactive = higher.
In this exercise, the only acceptable responses are active, inactive

Would you please look over these solved cases?
Molecule | Class
Cc1cc(C)c(S(=O)(=O)N[C@@H](/C=C(\Br)CO)C(C)C)c(C)c1 | inactive
CN1C(=O)C2C=C3CCCCC3=CC2N(C)C1=O (stereo not given) | inactive
Cc1cc(Cl)ccc1Nc1nc2c(s1)C(=O)c1ccccc1C2=O | active
CC1(C)N=C(N)N=C(N)N1CCCCc1ccccc1 | active

Below: the item to evaluate.
[in] Could you check what this test reported for CC1=C(C)C(=O)OC(C(C)(O)C2(O)CC3OC34C3CC(O)C56OC5C=CC(=O)C6(C)C3CCC42C)C1 (stereo not given) ?
[out] inactive

---

Tested on: NCI-H460
Protocol notes: NCI tumour cell line growth inhibition, 48 h
Activity calls are given as the source filed them. No stated cut-off is given here; in the data, active = GI50 up to about 1.1 µM and inactive = higher.
Field: GI50. Provide a value for each of the compounds that follow.

Before answering, review these 5 worked examples.
Compound | GI50
OC1OC(c2ccc[nH]2)C(F)(F)C(F)(F)C1(F)F (stereo not drawn) | > 100 µM (inactive)
Clc1cccc(C2ON=C(c3ccccc3)N2C23CC4CC(CC(C4)C2)C3)c1Cl (stereo not drawn) | > 10 µM (inactive)
COc1c2cc([N+](=O)[O-])cc1CNC(=O)CN1CCOCCOCCN(CCOCCOCC1)CC(=O)NC2 | > 100 µM (inactive)
CNC(=O)CNC(=O)CCC(=O)OC | > 100 µM (inactive)
COc1ccc(/C=N/N=C(\N)NO)cc1OC | 33.7 µM (inactive)

For every record below, what is its GI50?
1. CCCC1=C(CC)C(C(=O)Nc2c(C)cccc2C)=NC(S)N1 (stereo not drawn)
2. Oc1cc(O)c2c(c1)O[C@H](c1cc(O)c(O)c(O)c1)[C@@H](O)C2 [GALLOCATECHIN]
3. CSc1ccc2c(cc1=O)C(NC(=O)c1ccc(C#N)cc1)CCc1cc(O)c(O)c(O)c1-2 (stereo not drawn)

[out]
> 100 µM (inactive)
19.2 µM (inactive)
27.6 µM (inactive)

For every record below, what is its GI50?
1. COC(=O)C(CC12CC3CC(CC(C3)C1)C2)NC(=O)C(N)CC(=O)O (stereo not drawn)
2. Cc1ccc(S(=O)(=O)NC(=O)C2(Br)S(=O)(=O)OCCOS2(=O)=O)cc1
3. O=C(O)c1c2c(cc3c1CC1(Cc4ccccc4C1=O)C3)CCC2 (stereo not drawn)
4. C=CC[C@H]1[C@H](O[Si](C)(C)C(C)(C)C)C=CC(=O)[C@@H]1CC(=O)N(Cc1ccccc1)Cc1ccccc1

[out]
["> 100 µM (inactive)", "> 100 µM (inactive)", "4.62 µM (inactive)", "20.6 µM (inactive)"]

For every record below, what is its GI50?
1. N#Cc1ccc(/C=C2\Cc3ccccc3C2=O)cc1
2. O=[N+]([O-])/C=C/c1ccc(Cl)cc1Cl
3. CN(C)CCSCCO

[out]
1: > 100 µM (inactive); 2: 17.9 µM (inactive); 3: > 100 µM (inactive)

For every record below, what is its GI50?
1. NCC#CCNCCCN1CC1
2. O=C(Nc1cccc(C(F)(F)F)c1)O/N=C(/Cl)CCl
3. COc1ccc(OC)c2c1C(=O)C(Cl)=C(N1CCN(CCOCCO)CC1)C2=O
4. O=[N+]([O-])c1ccc2c(c1)C(N1CCN(CCO)CC1)Cc1ccc(F)cc1S2 (stereo not drawn)

[out]
> 100 µM (inactive)
> 100 µM (inactive)
18.8 µM (inactive)
8.61 µM (inactive)

For every record below, what is its GI50?
1. Cc1cc(C)nc(SCC(=O)OC2CC(C)CCC2C(C)C)n1 (stereo not drawn)
2. CC(=O)Nc1ccccc1-c1nc2ccccc2nc1C

[out]
1. 18.8 µM (inactive)
2. > 100 µM (inactive)

For every record below, what is its GI50?
1. CCOC(=O)/C=C/CCC(C)(C)COC(C)=O
2. COc1cccc([C@@]2(O)c3c(ccc(O)c3OC)[C@H]2OC)c1OC

[out]
["> 10 µM (inactive)", "47.4 µM (inactive)"]

---

System: MCF7
Protocol notes: NCI tumour cell line growth inhibition, 48 h
The source made the active and inactive calls. Cut-off read from the data, not from the text of the source: active = GI50 up to about 1.1 µM and inactive = higher.
Field: GI50. Provide a value for each of the molecules that follow.

Before answering, review these 3 worked examples.
Molecule | GI50
CCOC(=O)C(C(=O)OCC)=C1NC2(c3ccccc3Nc3ccc(C)cc32)C(C#N)S1 (stereo not given) | 3.05 µM (inactive)
CN(C)c1ccc(/C=C(\NC(=O)c2ccccc2)C(=O)NC(CC(=O)O)C(=O)O)cc1 (stereo not given) | > 100 µM (inactive)
CC1=Nc2c(C#N)ncn2N=C(C)C1 | > 100 µM (inactive)

For every record below, what is its GI50?
1. Cc1nn2c(=O)c([N+](=O)[O-])c(/C=C/c3ccco3)nc2s1
2. COc1cc2c(c(OC)c1OC)C(=O)CC2N (stereo not given)
3. Cc1ccc2c(c1)C(C(=O)N[C@@H]1C(=O)N3[C@@H]1SC(C)(C)[C@@H]3C(=O)O)OCCC2 (stereo not given in full)

[out]
["38.5 µM (inactive)", "> 100 µM (inactive)", "> 100 µM (inactive)"]

---

Tested on: MOLT-4
Protocol notes: NCI tumour cell line growth inhibition, 48 h
Activity calls are given as the source filed them. Cut-off read from the data, not from the text of the source: active = GI50 up to about 1.1 µM and inactive = higher.
In this exercise, the only acceptable responses are active, inactive

Would you please look over these solved cases?
Molecule | Class
CCC(C)SC1SCC2C(=O)N(C)C3(CC3C)C(=O)OCC(NC(=O)c3nc4ccccc4cc3O)C(=O)NC(C)C(=O)N(C)C1C(=O)N(C)C1(CC1C)C(=O)OCC(NC(=O)c1nc3ccccc3cc1O)C(=O)NC(C)C(=O)N2C (stereo not drawn) | active
Cc1ccc(S(=O)(=O)NC(=O)C2(Br)S(=O)(=O)OCCOS2(=O)=O)cc1 | inactive
CCOC(=O)c1sc2c(c1OC(=O)c1ccco1)c(=O)n(-c1ccccc1)c(=S)n2-c1ccccc1 | inactive
COc1ccc(/C=C2\C[C@H]3[C@@H]4CCC5=C[C@@H](N6CCCC6)CC[C@]5(C)[C@H]4CC[C@]3(C)[C@H]2O)cc1 | inactive
Cn1c(=O)c2ccccc2[n+]2c(-c3cccc([N+](=O)[O-])c3)csc12 | inactive
CC(C(=O)O)C1Nc2ccccc2NC1=O (stereo not drawn) | inactive

[in] Could you check what this test reported for `Cc1ccc2ccccc2c1NC1=NCCO1` ?
[out] inactive

[in] `Cc1c(N2CCN(C)CC2)nc2ccc(Cl)cc2c1-c1ccccc1` , same question.
[out] inactive
